What pIC50 was measured for each of the following?
Tested on: CAL-120;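 further: cell growth inhibition, read out as cell viability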
Assay: cells
Format: functional, cell-based, Homo sapiens
Conditions: Homo sapiens, CAL-120
Description: SANGER: Inhibition of human CAL-120 cell growth in a cell viability assay.
pIC50: −log10 of the molar value.

Worked set:
structure_as_smiles	test_target	pIC50
N#Cc1c(O)c2c(-c3ccc(-c4ccccc4O)cc3)csc2[nH]c1=O	CAL-120	< 5.99
O=C(O)c1ccc(-c2c[nH]c3ncc(-c4ccccc4)cc23)cc1C1CCCC1	CAL-120	< 4.80
Cc1cn(-c2cc(NC(=O)c3ccc(C)c(Nc4nccc(-c5cccnc5)n4)c3)cc(C(F)(F)F)c2)cn1	CAL-120	< 5.70
Nc1ccn([C@@H]2O[C@H](CO)[C@@H](O)C2(F)F)c(=O)n1	CAL-120	6.24

Below is a list of molecules. For each, state its recorded pIC50.
1. COc1cc2c(Nc3ccc(NC(=O)c4ccccc4)cc3)ncnc2cc1OCCCN1CCOCC1
2. CS(=O)(=O)c1ccc(C(=O)Nc2ccc(Cl)c(-c3ccccn3)c2)c(Cl)c1
3. Cc1cc([N+](=O)[O-])ccc1NS(=O)(=O)c1cc(Cl)ccc1Cl

Ans.
1. < 5.40
2. < 5.00
3. 5.22
